# target-of-assay: Carboxy-terminal domain RNA polymerase II polypeptide A small phosphatase 1 (Homo sapiens)
# Sequence (Q9GZU7 whole entry, the tested form may be a part): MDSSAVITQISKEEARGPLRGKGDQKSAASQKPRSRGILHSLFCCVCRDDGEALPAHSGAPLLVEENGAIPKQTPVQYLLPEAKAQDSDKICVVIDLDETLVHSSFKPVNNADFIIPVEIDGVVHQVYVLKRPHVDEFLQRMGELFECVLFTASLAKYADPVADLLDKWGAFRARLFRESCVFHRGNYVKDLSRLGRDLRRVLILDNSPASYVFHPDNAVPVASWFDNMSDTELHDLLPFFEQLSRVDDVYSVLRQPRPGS
# measurement-notes: CTDSP1 inhibitors, concentration-response, biochemical, absorbance readout, ultra-high-throughput screen actives (AID 540297)
# Format: functional
Activity calls are given as the source filed them. No stated cut-off is given here; in the data, actives have a measured IC50 and inactives only a lower limit.
I'd appreciate it if you could supply IC50 values for the items below.

// solved cases for IC50 follow
* C=CCN1C(=O)/C(=C2/Sc3ccccc3N2CCCS(=O)(=O)O)SC1=S.c1ccncc1 | 5.11 µM (active)
* O=C(COc1ccccc1[N+](=O)[O-])Nc1cccc(S(=O)(=O)NC2=NCCCCC2)c1 | 9 µM (active)
* O=c1c(O)c(-c2ccc(O)cc2)oc2cc(O)cc(O)c12 [KAEMPFEROL] | 9.93 µM (active)

Return reported IC50 values for all items listed beneath this line.
1. Cc1cccc(NC(=O)CN2C(=O)N/C(=C\c3ccccc3OCc3ccc(C(=O)O)cc3)C2=O)c1
2. CCOc1ccccc1NC(=O)Cn1cnc2c(nnn2-c2cccc(OC)c2)c1=O
3. O=c1/c(=C/c2ccc(O)c([N+](=O)[O-])c2)sc2nc3ccccc3n12
4. COc1ccc(/C=C2\SC(=S)N(CCC(=O)Nc3cccc(C(=O)O)c3)C2=O)cc1

1: 6.07 µM (active); 2: 10.1 µM (active); 3: 1.83 µM (active); 4: 6.38 µM (active)
